These measurements were taken from BindingDB's records for doi:10.7270/Q2251GJ9.

STUDY_TARGET: Sphingosine 1-phosphate receptor 1 (Homo sapiens, UniProt P21453)
Sequence (P21453 whole entry): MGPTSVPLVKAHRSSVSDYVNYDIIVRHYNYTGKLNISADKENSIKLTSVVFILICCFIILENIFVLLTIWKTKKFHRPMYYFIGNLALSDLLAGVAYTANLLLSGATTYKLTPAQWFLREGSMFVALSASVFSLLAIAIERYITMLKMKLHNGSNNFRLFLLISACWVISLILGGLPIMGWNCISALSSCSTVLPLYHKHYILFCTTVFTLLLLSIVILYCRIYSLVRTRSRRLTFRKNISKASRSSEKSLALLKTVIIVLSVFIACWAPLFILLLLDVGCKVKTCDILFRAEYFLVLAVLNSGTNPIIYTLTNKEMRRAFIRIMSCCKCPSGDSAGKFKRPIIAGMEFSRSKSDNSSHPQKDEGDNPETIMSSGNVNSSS
PROCEDURE_DETAILS: direct activation of human S1P1 – cell-based, agonist mode, 60K MLSMR set, dose response (AID 468)
ENDPOINT_NAME: EC50

INSERT INTO measurements (compound, endpoint_name, endpoint_result) VALUES
  ('Cc1noc(C)c1S(=O)(=O)N(CC(=O)Nc1ccc2c(c1)OCO2)c1ccc(C(C)C)cc1 [MLS000117405]', 'EC50', '> 95 µM'),
  ('CCOc1ccc(C2CC(c3cccc(OC)c3OC)n3nnnc3N2)cc1Cl (stereo unspecified)', 'EC50', '> 95 µM'),
  ('Nc1nnnn1N=C/C(Br)=C/c1ccccc1', 'EC50', '> 10 µM'),
  ('O=C(Nc1nc(-c2ccc(Cl)s2)cs1)c1ccncc1 [MLS000098514]', 'EC50', '> 3 µM'),
  ('Oc1ccc(-c2nnc(-c3ccc(O)cc3)nn2)cc1', 'EC50', '> 10 µM'),
  ('Cc1cc(C(=O)CC#N)c(C)n1-c1ccc(OC(F)F)cc1', 'EC50', '> 10 µM');
